Assay: Candida growth reduction in fluconazole presence – CaCi-2 strain, Alamar Blue, dry powder, set 2, antifungal resistance reversal project, dose response (AID 488930)
Conditions: C. albicans CaCi-2 (fluconazole-resistant clinical isolate) + fluconazole, 48 h; series mostly up to 6 µM
Potency and affinity values are given separately. Results filed as inconclusive are left out. The source made the active and inactive calls.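 Rule for the calls: active = compounds whose fitted half-maximal concentration is at most ten times their top tested dose; inconclusive = flat curve with 30 to 70% inhibition, or poor fit; inactive = the rest.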
property measured: outcome

Known outcome results, listed for orientation:
[[record]]
smiles = "COc1ccnc(N2CCN(C(=O)c3ccc(Cl)cc3)CC2)c1"
property_measured = "outcome"
reported_result = "inactive"

[[record]]
smiles = "Cc1cc(N2CCN(C(=O)c3ccc(Cl)cc3)CC2)c2ccc(F)cc2n1"
property_measured = "outcome"
reported_result = "inactive"

[[record]]
smiles = "COCCC(=O)N1CCN(c2ccnc3cc(Cl)ccc23)CC1"
property_measured = "outcome"
reported_result = "inactive"

[[record]]
smiles = "O=C(c1ccc(Cl)cc1)N1CCCN(c2ccnc3cc(Cl)ccc23)CC1"
property_measured = "outcome"
reported_result = "inactive"

[[record]]
smiles = "O=C(c1ccc(Cl)cc1)N1CCNCC1"
property_measured = "outcome"
reported_result = "inactive"


IN: Item O=C(Nc1ccc(Cl)cc1)N1CCN(c2ccnc3cc(Cl)ccc23)CC1 : provide outcome
OUT: inactive

IN: Supply outcome value. Item: CCCC(=O)N1CCN(c2ccnc3cc(Cl)ccc23)CC1
OUT: inactive

IN: Identify outcome associated with the compound O=C(O)Cn1nc(-c2ccccc2)c2ccccc21
OUT: inactive

IN: Provide only the value of recorded outcome for O=C(c1ccc(Cl)cc1)N1CCN(c2ccncc2)CC1
OUT: inactive

IN: Note outcome for the compound shown: N#Cc1ccc(N2CCN(C(=O)c3ccc(Cl)cc3)CC2)nc1
OUT: inactive

Numbers sourced from PubChem BioAssay AID488930.
